target: T1, His6-AviTag-MBP-TEV-POLE2 (human, UniProt P56282 1-527, biotin on the AviTag (BirA co-expressed, biotin in the medium)); test: fluorescence polarisation; competitive; dilution series of the non-fluorescent DONSON peptide added to 50 nM fluoDONSON and 3.85 μM POLE2 protein; same buffer as the direct experiment; settings: both partners purified
T1 construct: POLE2, residues 1-527; a TEV site lies between MBP and POLE2; also called His6-avi-MBP-tagged POLE2; avi-His6-MBP-POLE2; source: E. coli BL21(DE3), co-expressed with BirA, purified (HisTrap, MBPtrap, Q HP); not shown: His6, N-terminal, kept; AviTag, N-terminal, kept; MBP, N-terminal, kept
T1 sequence (P56282 whole entry, the tested form may be a part): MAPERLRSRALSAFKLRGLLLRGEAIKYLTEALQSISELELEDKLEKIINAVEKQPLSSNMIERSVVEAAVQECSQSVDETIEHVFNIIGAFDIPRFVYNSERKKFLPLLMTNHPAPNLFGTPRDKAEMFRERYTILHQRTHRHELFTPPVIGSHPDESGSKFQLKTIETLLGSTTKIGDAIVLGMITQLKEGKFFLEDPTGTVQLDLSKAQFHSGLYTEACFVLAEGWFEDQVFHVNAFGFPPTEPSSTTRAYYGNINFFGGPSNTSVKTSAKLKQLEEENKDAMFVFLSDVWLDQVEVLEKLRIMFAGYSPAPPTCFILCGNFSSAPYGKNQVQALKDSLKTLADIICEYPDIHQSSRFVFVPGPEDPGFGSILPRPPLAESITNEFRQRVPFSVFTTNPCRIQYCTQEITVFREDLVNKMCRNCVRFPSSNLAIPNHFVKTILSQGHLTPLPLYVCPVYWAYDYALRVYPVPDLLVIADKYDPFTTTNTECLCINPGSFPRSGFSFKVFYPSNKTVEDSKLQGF
*: point of attachment. Biotin = O=C1N[C@H]2[C@H](CS[C@H]2CCCCC(=O)*)N1; TTDS = Trioxatridecan-succinamic acid linker
Parameter: Kd (µM)
# unit: µM | format: bare number

The binder listed as {Biotin-TTDS}-GPAAARRNPFARLDNRPR-NH2 (Protein downstream neighbor of Son (DONSON), residues 71-88; also called DONSON_71-88; DONSON NPF motif; source: synthetic peptide (ABI 443 A synthesizer, Fmoc), HPLC purified) [NPF motif peptide of DONSON (residues 71-88)] shows Kd equal to 13
